- TESTED TARGET: CDK8/CycC (Homo sapiens)
- Sequence (P49336 whole entry): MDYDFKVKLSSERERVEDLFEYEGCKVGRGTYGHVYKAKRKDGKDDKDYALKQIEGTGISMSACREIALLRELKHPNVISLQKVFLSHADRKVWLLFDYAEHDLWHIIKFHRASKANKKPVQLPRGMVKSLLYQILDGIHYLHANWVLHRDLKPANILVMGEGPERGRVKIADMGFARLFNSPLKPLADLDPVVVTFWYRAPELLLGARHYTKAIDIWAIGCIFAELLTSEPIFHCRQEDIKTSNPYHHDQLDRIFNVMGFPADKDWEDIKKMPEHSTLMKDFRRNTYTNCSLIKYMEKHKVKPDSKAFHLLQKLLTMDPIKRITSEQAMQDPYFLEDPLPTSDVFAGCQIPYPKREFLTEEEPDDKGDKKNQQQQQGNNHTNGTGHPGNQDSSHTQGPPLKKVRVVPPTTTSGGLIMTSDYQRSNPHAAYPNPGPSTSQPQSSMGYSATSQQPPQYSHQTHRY
- Sequence (P24863 whole entry partner): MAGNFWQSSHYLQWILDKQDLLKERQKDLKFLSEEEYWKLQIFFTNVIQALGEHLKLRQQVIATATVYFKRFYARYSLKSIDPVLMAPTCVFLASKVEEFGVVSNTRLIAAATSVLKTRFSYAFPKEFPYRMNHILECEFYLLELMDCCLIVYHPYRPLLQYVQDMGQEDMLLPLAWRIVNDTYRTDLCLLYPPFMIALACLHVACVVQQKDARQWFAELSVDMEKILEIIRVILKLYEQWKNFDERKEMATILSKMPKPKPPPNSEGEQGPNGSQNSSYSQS
- EXPERIMENT DESCRIPTION: Radiometric protein kinase assay (PanQinase, ProQinase)
For each entry below, report its IC50 value.
Kindly provide the numeric value in nM only, without the unit symbol.

Value of measured IC50 for the entry Cn1cc(-c2ccc(-c3cncc(Cl)c3N3CCC4(CCNC4=O)CC3)cc2)cn1 [CCT251545, reference compound] : 4.2

Value of measured IC50 for the entry CN1CCN(C(=O)c2ccc3cc(CCNc4ncnc5ccc(C#N)cc45)ccc3c2)CC1 [Senexin B, reference compound] : 17.3

---

- TESTED TARGET: CDK19/CycC (Homo sapiens, UniProt Q9BWU1)
- Sequence (Q9BWU1 whole entry, one chain of several): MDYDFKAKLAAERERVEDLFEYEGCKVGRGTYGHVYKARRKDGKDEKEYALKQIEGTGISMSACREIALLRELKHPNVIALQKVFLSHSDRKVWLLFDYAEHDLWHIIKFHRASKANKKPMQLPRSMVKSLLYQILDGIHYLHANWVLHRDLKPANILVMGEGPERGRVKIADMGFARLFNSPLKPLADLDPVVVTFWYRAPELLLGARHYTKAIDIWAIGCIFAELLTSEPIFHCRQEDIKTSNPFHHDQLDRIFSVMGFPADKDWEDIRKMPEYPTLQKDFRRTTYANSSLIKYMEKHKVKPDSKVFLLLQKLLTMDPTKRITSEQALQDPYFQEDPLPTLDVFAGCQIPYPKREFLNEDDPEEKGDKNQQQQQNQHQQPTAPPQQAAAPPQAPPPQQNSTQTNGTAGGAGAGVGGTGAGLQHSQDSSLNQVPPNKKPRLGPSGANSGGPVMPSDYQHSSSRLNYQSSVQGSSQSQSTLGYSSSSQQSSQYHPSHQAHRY
- EXPERIMENT DESCRIPTION: Radiometric protein kinase assay (PanQinase, ProQinase)
READOUT TYPE: pIC50
Scale explanation: pIC50 corresponds to minus log10 of a concentration expressed in moles per litre.

Value of measured pIC50 for the entry Cn1cc(-c2ccc(-c3cncc(Cl)c3N3CCC4(CCNC4=O)CC3)cc2)cn1 [CCT251545, reference compound] : 7.84
